Tested target: Serine/threonine-protein kinase PLK1 (Homo sapiens)
Method summary: Inhibition of biotinylated PLHSpT peptide binding to n-terminal GST-tagged full length human PLK1 PBD preincubated with compound for 30 mins followed by peptide addition and measured after 1 hrs by time-resolved fluorescence energy transfer assay
pIC50: −log10 of the molar value.

{"Compound": "COc1c2c(cc3c1C(CC(=O)c1ccccn1)[N+](C)(C)CC3)OCO2 (stereo unspecified)", "pIC50": 5.68}

###

Tested target: Serine/threonine-protein kinase PLK1 (Homo sapiens, UniProt P53350, T210D)
Sequence (P53350 2-603 T210D limits assumed): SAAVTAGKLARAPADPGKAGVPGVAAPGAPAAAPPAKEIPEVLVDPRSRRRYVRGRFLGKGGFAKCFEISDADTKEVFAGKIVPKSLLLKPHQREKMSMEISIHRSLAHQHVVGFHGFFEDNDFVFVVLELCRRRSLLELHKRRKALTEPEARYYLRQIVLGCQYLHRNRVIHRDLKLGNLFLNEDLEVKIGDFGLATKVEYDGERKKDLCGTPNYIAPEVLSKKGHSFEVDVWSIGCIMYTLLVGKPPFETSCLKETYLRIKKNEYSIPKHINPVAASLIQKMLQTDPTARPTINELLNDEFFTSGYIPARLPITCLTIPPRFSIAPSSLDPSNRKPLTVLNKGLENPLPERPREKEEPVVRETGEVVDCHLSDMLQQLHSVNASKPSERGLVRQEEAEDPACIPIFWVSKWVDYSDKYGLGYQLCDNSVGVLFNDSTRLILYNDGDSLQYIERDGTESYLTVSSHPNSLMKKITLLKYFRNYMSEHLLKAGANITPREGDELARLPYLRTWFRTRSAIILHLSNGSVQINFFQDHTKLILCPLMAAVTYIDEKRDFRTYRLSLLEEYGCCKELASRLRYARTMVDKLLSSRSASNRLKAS
Method summary: Inhibition of PLK1 T210D mutant kinase domain (unknown origin) using casein as substrate preincubated for 3 hrs followed by substrate addition and measured after 30 mins in the presence of ATP by ADP-Glo kinase assay
pIC50: −log10 of the molar value.
Property name: pIC50

{"Smiles str": "O=C(O)[C@H]1O[C@@H](Oc2cc3oc(-c4ccccc4)cc(=O)c3c(O)c2O)[C@H](O)[C@@H](O)[C@@H]1O", "Tested target": "Serine/threonine-protein kinase PLK1 (Homo sapiens, UniProt P53350, T210D)", "Property name": "pIC50", "Value observed": 5.44}

###

Tested target: Serine/threonine-protein kinase PLK2 (Homo sapiens, UniProt Q9NYY3)
Sequence (Q9NYY3 whole entry, the tested form may be a part): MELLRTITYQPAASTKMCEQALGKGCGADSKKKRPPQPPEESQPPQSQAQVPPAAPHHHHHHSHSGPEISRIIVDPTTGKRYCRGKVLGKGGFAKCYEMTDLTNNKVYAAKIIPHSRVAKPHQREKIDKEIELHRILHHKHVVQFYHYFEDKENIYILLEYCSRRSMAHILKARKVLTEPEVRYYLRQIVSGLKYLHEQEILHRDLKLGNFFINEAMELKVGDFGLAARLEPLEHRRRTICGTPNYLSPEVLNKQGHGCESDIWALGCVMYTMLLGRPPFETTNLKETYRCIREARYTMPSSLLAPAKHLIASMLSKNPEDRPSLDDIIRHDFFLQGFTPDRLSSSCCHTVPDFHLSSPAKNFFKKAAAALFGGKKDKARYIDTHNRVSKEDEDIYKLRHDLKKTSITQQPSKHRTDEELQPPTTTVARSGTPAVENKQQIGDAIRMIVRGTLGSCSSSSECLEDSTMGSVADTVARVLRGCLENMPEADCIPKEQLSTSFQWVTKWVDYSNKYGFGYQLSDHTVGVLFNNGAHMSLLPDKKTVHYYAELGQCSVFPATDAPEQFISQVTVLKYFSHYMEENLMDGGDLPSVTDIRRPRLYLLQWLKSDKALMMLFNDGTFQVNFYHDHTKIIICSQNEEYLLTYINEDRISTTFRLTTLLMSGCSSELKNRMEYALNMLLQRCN
Method summary: Inhibition of 5-carboxyfluorescein-GPMQTSpTPKNG-OH peptide binding to PLK2 (355 to 685 residues) PBD (unknown origin) preincubated for 1 hrs with compound followed by peptide addition and measured after 75 min by fluorescence polarization assay
Property name: IC50 (µM)

{"Smiles str": "CC1=C/C(=N/OC(=O)c2ccc(CNC(=O)CCc3cn(CCCCCCOCCOCCNC(=O)[C@H](C)CCC45CC6CC(CC(C6)C4)C5)nn3)cc2C)C(C)=CC1=O", "Value observed": 54.8}

###

Method summary: Half-life in rat liver microsomes
Format: ADME, Microsome

{"Smiles str": "COc1cccc(CC(=O)NCCCn2c(=O)c3cc(F)ccc3n3c(=S)[nH]nc23)c1", "half-life": "20.1 min"}
{"Smiles str": "O=c1c2cc(F)ccc2n2c(=S)[nH]nc2n1CC1CC1", "half-life": "> 30 min"}
{"Smiles str": "O=c1c2cc(F)ccc2n2c(=S)[nH]nc2n1CCc1ccccn1", "half-life": "> 30 min"}
{"Smiles str": "O=c1c2cc(F)ccc2n2c(=S)[nH]nc2n1CCc1ccncc1", "half-life": "> 30 min"}
{"Smiles str": "N#Cc1ccc(CC(=O)NCCCn2c(=O)c3cc(F)ccc3n3c(=S)[nH]nc23)cc1", "half-life": "> 30 min"}
{"Smiles str": "O=c1c2cc(F)ccc2n2c(=S)[nH]nc2n1CCC(F)(F)F", "half-life": "> 30 min"}

###

Parameter: IC50. Scope: all listed entries.
Tested target: Serine/threonine-protein kinase PLK2 (Homo sapiens, UniProt Q9NYY3)
Method summary: Inhibition of PLK2 (unknown origin) in the presence of ATP by ADP-Glo-kinase assay
Property name: IC50 (µM)

{"Smiles str": "O=C1C[C@@H](c2ccccc2)Oc2cc(O)c(O)c(O)c21", "Value observed": 242}
{"Smiles str": "O=c1cc(-c2ccccc2)oc2cc(O)c(O)c(O)c12", "Value observed": 314}
{"Smiles str": "COc1cc(O)c2c(=O)cc(-c3ccccc3)oc2c1OC", "Value observed": 952}

###

Tested target: Serine/threonine-protein kinase PLK1 (Homo sapiens)
Method summary: Inhibition of 5-carboxyfluoresceinGPMQSpTPLNG-OH peptide binding to N-terminal His7-tagged human PLK1 (326 to 603 residues) PBD expressed in Escherichia coli BL21 (DE3) cells preincubated for 1 hrs with compound followed by peptide addition and measured after 1 hrs by fluorescence polarization assay

{"Smiles str": "CC1=C/C(=N/OC(=O)c2ccccc2C)C(C)=CC1=O", "Unit symbol": "nM", "IC50": 1360}

###

Test system: MV4-11
Method summary: Antiproliferative activity against human MV4-11 cells assessed as inhibition of cell growth incubated for 24 hrs by CCK-8 assay
Type: functional, cell-based
Conditions used: MV4-11, 24 h

{"Molecule": "CC[C@@H]1C(=O)N(C)c2cnc(Nc3ccc(C(=O)NCCOCCOCCNc4cccc5c4C(=O)N(C4CCC(=O)NC4=O)C5=O)cc3OC)nc2N1C1CCCC1 (stereo partly specified)", "IC50": "4.48 nM"}

###

Tested target: Serine/threonine-protein kinase PLK2 (Homo sapiens)
Method summary: Inhibition of 5-carboxyfluorescein-GPMQTSpTPKNG-OH peptide binding to C-terminal 6His-tagged human PLK2 (355 to 685 residues) PBD expressed in Rosetta BL21 (DE3) cells preincubated for 1 hrs with compound followed by peptide addition and measured immediately by fluorescence polarization assay
Property name: IC50 (µM)

{"Smiles str": "CC1=CC(=O)C(C(C)C)=C/C1=N/OC(=O)c1ccccc1C", "Tested target": "Serine/threonine-protein kinase PLK2 (Homo sapiens)", "Property name": "IC50", "Value observed": 18.7}

Just for reference, ChEMBL document CHEMBL5126602 is where these values come from.
